TARGET: T1, recombinant human GM-CSF (human, UniProt P04141 18-144)
T1 construct: also called rhGM-CSF; CSF2
T1 sequence (P04141 18-144 limits assumed): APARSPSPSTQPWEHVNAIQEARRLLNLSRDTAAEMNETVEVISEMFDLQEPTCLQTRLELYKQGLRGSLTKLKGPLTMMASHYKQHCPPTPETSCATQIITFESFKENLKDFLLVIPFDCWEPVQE
ASSAY PROCEDURE: ELISA on coated rhGM-CSF, UBA relative to 1D2
Quick list: binding affinity % of 1D2 per entry.
Form field: result (number plus unit)

BINDER	binding affinity % of 1D2
1D2 SDR mutant HD31C (antibody, IgG1, V domains shown, also called X1 C) VH: QVQLVQSGAEVKKPGASVKVSCEASGYTFTCKYLHWVRQAPGQGLEWMAWINPKSGGTFYAQNFKGRVTVTRDTSINTAYLELTSLRLDDTSTYYCARGRDYYDQGAADLWGQGTMVTVSS VL: DIQLTQSPSSLSASVGDRVTITCRASQGINSVLAWYQQKPGKAPKLLLYAASKLESGVPSRFSGSGSGTDYTLTISSLQPEDFGTYYCQQYYSPVRTFGQGTKVEIKR	79%
1D2 SDR mutant HY103R (antibody, IgG1, V domains shown, also called X6 R) VH: QVQLVQSGAEVKKPGASVKVSCEASGYTFTDKYLHWVRQAPGQGLEWMAWINPKSGGTFYAQNFKGRVTVTRDTSINTAYLELTSLRLDDTSTYYCARGRDYRDQGAADLWGQGTMVTVSS VL: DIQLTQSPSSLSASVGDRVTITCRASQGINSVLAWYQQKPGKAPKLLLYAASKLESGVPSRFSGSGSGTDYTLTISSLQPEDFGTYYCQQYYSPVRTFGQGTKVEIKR	115%
1D2 SDR mutant HY102G (antibody, IgG1, V domains shown, also called X5 G) VH: QVQLVQSGAEVKKPGASVKVSCEASGYTFTDKYLHWVRQAPGQGLEWMAWINPKSGGTFYAQNFKGRVTVTRDTSINTAYLELTSLRLDDTSTYYCARGRDGYDQGAADLWGQGTMVTVSS VL: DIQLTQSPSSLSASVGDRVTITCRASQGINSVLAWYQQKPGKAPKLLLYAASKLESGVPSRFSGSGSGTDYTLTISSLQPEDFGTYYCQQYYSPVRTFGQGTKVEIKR	89%

Input line: Quick one: binding affinity % of 1D2 of 1D2 SDR mutant HY102S (antibody, IgG1, V domains shown, also called X5 S) VH: QVQLVQSGAEVKKPGASVKVSCEASGYTFTDKYLHWVRQAPGQGLEWMAWINPKSGGTFYAQNFKGRVTVTRDTSINTAYLELTSLRLDDTSTYYCARGRDSYDQGAADLWGQGTMVTVSS VL: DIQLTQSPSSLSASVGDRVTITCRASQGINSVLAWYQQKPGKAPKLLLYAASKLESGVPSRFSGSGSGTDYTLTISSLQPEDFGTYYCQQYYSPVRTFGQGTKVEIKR ?
Output line: 104%

Input line: Quick one: binding affinity % of 1D2 of 1D2 SDR mutant LV95R (antibody, IgG1, V domains shown, also called X10 R) VH: QVQLVQSGAEVKKPGASVKVSCEASGYTFTDKYLHWVRQAPGQGLEWMAWINPKSGGTFYAQNFKGRVTVTRDTSINTAYLELTSLRLDDTSTYYCARGRDYYDQGAADLWGQGTMVTVSS VL: DIQLTQSPSSLSASVGDRVTITCRASQGINSVLAWYQQKPGKAPKLLLYAASKLESGVPSRFSGSGSGTDYTLTISSLQPEDFGTYYCQQYYSPRRTFGQGTKVEIKR ?
Output line: 45%

Input line: Quick one: binding affinity % of 1D2 of 1D2 SDR mutant HY103G (antibody, IgG1, V domains shown, also called X6 G) VH: QVQLVQSGAEVKKPGASVKVSCEASGYTFTDKYLHWVRQAPGQGLEWMAWINPKSGGTFYAQNFKGRVTVTRDTSINTAYLELTSLRLDDTSTYYCARGRDYGDQGAADLWGQGTMVTVSS VL: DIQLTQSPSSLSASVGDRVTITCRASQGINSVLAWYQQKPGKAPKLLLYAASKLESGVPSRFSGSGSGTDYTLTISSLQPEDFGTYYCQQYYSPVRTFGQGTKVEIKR ?
Output line: 138%
